Data origin, for the record: ChEMBL document CHEMBL5291721

The reader will find AC50 measurements below, all made with Beta-2 adrenergic receptor (Homo sapiens, UniProt P07550).
Sequence (P07550 whole entry): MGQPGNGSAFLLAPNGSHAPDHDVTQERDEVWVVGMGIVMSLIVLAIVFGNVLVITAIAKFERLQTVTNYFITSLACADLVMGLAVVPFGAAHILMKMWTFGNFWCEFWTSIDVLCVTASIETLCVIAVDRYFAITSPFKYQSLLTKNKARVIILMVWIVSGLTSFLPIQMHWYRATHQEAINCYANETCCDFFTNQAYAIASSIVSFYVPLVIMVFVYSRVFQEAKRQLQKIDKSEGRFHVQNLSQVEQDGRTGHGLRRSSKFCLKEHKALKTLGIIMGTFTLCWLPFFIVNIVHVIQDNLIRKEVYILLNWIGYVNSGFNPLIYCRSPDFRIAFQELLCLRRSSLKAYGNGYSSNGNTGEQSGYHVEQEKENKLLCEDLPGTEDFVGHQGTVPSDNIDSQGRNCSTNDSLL

response.value for C[C@H]1C[C@H]2[C@@H]3CCC4=CC(=O)C=C[C@]4(C)[C@@]3(Cl)[C@@H](O)C[C@]2(C)[C@@]1(O)C(=O)CO (field: AC50) = > 10 µM

response.value for O=c1oc2ccccc2c(O)c1Cc1c(O)c2ccccc2oc1=O (field: AC50) = > 10 µM

response.value for CCCN(CCC)CCc1cccc2c1CC(=O)N2 (field: AC50) = > 10 µM

response.value for COCCCOc1ccnc(C[S+]([O-])c2nc3ccccc3[nH]2)c1C (configuration not stated) (field: AC50) = > 10 µM

response.value for CC(C)CC(N(C)C)C1(c2ccc(Cl)cc2)CCC1 (configuration not stated) (field: AC50) = > 10 µM

response.value for C#C[C@]1(O)CC[C@H]2[C@@H]3CCc4cc(OC)ccc4[C@H]3CC[C@@]21C (field: AC50) = > 10 µM

response.value for NS(=O)(=O)c1cc2c(cc1C(F)(F)F)NC(Cc1ccccc1)NS2(=O)=O (configuration not stated) [BENDROFLUMETHIAZIDE] (field: AC50) = > 10 µM

response.value for CN(c1nccc(=O)[nH]1)C1CCN(c2nc3ccccc3n2Cc2ccc(F)cc2)CC1 (field: AC50) = > 30 µM

response.value for CC(C)c1cc2c(cc1S(=O)(=O)O)[C@@]1(C)CCC[C@@](C)(C(=O)O)[C@@H]1CC2 (field: AC50) = > 30 µM

response.value for NS(=O)(=O)c1cc(C2(O)NC(=O)c3ccccc32)ccc1Cl (configuration not stated) (field: AC50) = > 10 µM

response.value for CC(/C=C1\SC(=S)N(CC(=O)O)C1=O)=C\c1ccccc1 (field: AC50) = > 30 µM

response.value for NCCCC(O)(P(=O)(O)O)P(=O)(O)O (field: AC50) = > 10 µM

response.value for [H]/N=C(/N)N[C@H]1[C@H](O)[C@@H](O)[C@H](O[C@@H]2O[C@@H](C)[C@](O)(C=O)[C@H]2O[C@@H]2O[C@@H](CO)[C@H](O)[C@@H](O)[C@@H]2NC)[C@@H](N/C(N)=N\[H])[C@@H]1O (field: AC50) = > 30 µM

response.value for COc1ccc(/C=C/C(=O)Nc2ccccc2C(=O)O)cc1OC (field: AC50) = > 30 µM

response.value for CCC(C)(Oc1ccc(C2(c3ccc(OC(C)(CC)C(=O)O)cc3)CCCCC2)cc1)C(=O)O (configuration not stated) [CLINOFIBRATE] (field: AC50) = > 30 µM

response.value for NS(=O)(=O)c1cc(C(=O)O)cc(N2CCCC2)c1Oc1ccccc1 [PIRETANIDE] (field: AC50) = > 30 µM

response.value for Cc1cnc(NC(=O)C2=C(O)c3ccccc3S(=O)(=O)N2C)s1 (field: AC50) = > 10 µM

====

Give AC50 for every item shown.

The reported AC50 value, Type-1 angiotensin II receptor (Homo sapiens), for CCCC[C@H](C)C[C@H](O)/C=C/[C@H]1[C@H](O)CC(=O)[C@@H]1CCCC/C=C/C(=O)O reads > 30 µM

The reported AC50 value, Type-1 angiotensin II receptor (Homo sapiens), for CCn1cc(C(=O)O)c(=O)c2cc(F)c(N3CCNCC3)nc21 reads > 30 µM

The reported AC50 value, Type-1 angiotensin II receptor (Homo sapiens), for COc1ccc(/C=C/C(=O)Nc2ccccc2C(=O)O)cc1OC reads > 30 µM

The reported AC50 value, Type-1 angiotensin II receptor (Homo sapiens), for Clc1ccc2c(c1)C(c1ccccc1)=NCc1nncn1-2 reads > 30 µM

The reported AC50 value, Type-1 angiotensin II receptor (Homo sapiens), for COCCOC(=O)C1=C(C)NC(C)=C(C(=O)OC/C=C/c2ccccc2)C1c1cccc([N+](=O)[O-])c1 (stereo unspecified) reads > 30 µM

The reported AC50 value, Type-1 angiotensin II receptor (Homo sapiens), for Cc1cccc(N(C)C(=S)Oc2ccc3ccccc3c2)c1 [TOLNAFTATE] reads > 10 µM

The reported AC50 value, Type-1 angiotensin II receptor (Homo sapiens), for Clc1cccc(Cl)c1N=C1NCCN1 reads > 30 µM

The reported AC50 value, Type-1 angiotensin II receptor (Homo sapiens), for Cc1cnc(NC(=O)C2=C(O)c3ccccc3S(=O)(=O)N2C)s1 reads > 30 µM

The reported AC50 value, Type-1 angiotensin II receptor (Homo sapiens), for N=C(N)c1ccc2cc(OC(=O)c3ccc(N=C(N)N)cc3)ccc2c1 reads > 30 µM

The reported AC50 value, Type-1 angiotensin II receptor (Homo sapiens), for O=C(Nc1c(Cl)cncc1Cl)c1ccc(OC(F)F)c(OCC2CC2)c1 reads > 30 µM

The reported AC50 value, Type-1 angiotensin II receptor (Homo sapiens), for CC(C)(C)NC[C@H](O)COc1nsnc1N1CCOCC1 reads > 30 µM

The reported AC50 value, Type-1 angiotensin II receptor (Homo sapiens), for N#Cc1ccccc1-c1cc(-c2ccccn2)cn(-c2ccccc2)c1=O reads > 30 µM

The reported AC50 value, Type-1 angiotensin II receptor (Homo sapiens), for CC#CCn1c(N2CCC[C@@H](N)C2)nc2c1c(=O)n(Cc1nc(C)c3ccccc3n1)c(=O)n2C reads > 30 µM

The reported AC50 value, Type-1 angiotensin II receptor (Homo sapiens), for CC(=O)c1ccc2c(c1)N(CCCN1CCC(CCO)CC1)c1ccccc1S2 reads > 30 µM

The reported AC50 value, Type-1 angiotensin II receptor (Homo sapiens), for O=c1oc2ccccc2c(O)c1Cc1c(O)c2ccccc2oc1=O reads > 10 µM

The reported AC50 value, Type-1 angiotensin II receptor (Homo sapiens), for CC(C)OC(=O)C(C(=O)OC(C)C)=C1SC=CS1 [MALOTILATE] reads > 30 µM

The reported AC50 value, Type-1 angiotensin II receptor (Homo sapiens), for CC(/C=C1\SC(=S)N(CC(=O)O)C1=O)=C\c1ccccc1 reads 1.5 µM

The reported AC50 value, Type-1 angiotensin II receptor (Homo sapiens), for CC(=O)O[C@H]1C[C@@H]2CC[C@@H]3[C@H](CC[C@@]4(C)[C@H]3C[C@H]([N+]3(C)CCCCC3)[C@@H]4OC(C)=O)[C@@]2(C)C[C@@H]1[N+]1(C)CCCCC1 reads > 10 µM

The reported AC50 value, Type-1 angiotensin II receptor (Homo sapiens), for COC(=O)N[C@@H](C)CNc1nccc(-c2cn(C(C)C)nc2-c2cc(Cl)cc(NS(C)(=O)=O)c2F)n1 reads > 30 µM

The reported AC50 value, Type-1 angiotensin II receptor (Homo sapiens), for CCCCNc1ccc(C(=O)OCCN(C)C)cc1 reads > 30 µM

The reported AC50 value, Type-1 angiotensin II receptor (Homo sapiens), for Cc1cc(CC(=O)O)n(C)c1C(=O)c1ccc(Cl)cc1 [ZOMEPIRAC] reads > 30 µM

The reported AC50 value, Type-1 angiotensin II receptor (Homo sapiens), for C#C[C@]1(O)CC[C@H]2[C@@H]3CCc4cc(OC)ccc4[C@H]3CC[C@@]21C reads > 10 µM

The reported AC50 value, Type-1 angiotensin II receptor (Homo sapiens), for COCCCOc1ccnc(C[S+]([O-])c2nc3ccccc3[nH]2)c1C (stereo unspecified) reads > 30 µM

The reported AC50 value, Type-1 angiotensin II receptor (Homo sapiens), for CO[C@@]1(NC(=O)Cc2cccs2)C(=O)N2C(C(=O)O)=C(COC(N)=O)CS[C@@H]21 reads > 30 µM

The reported AC50 value, Type-1 angiotensin II receptor (Homo sapiens), for O=C(Nc1nc(-c2cc(Cl)cs2)c(N2CCN(C3CCCCC3)CC2)s1)c1cnc(N2CCC(C(=O)O)CC2)c(Cl)c1 reads > 10 µM

The reported AC50 value, Type-1 angiotensin II receptor (Homo sapiens), for CCCOC(C(=O)OC1CCN(C)CC1)(c1ccccc1)c1ccccc1 reads > 30 µM

The reported AC50 value, Type-1 angiotensin II receptor (Homo sapiens), for COc1cc(OC)c(C(=O)CCCN2CCCC2)c(OC)c1 reads > 30 µM

The reported AC50 value, Type-1 angiotensin II receptor (Homo sapiens), for Nc1ccc(C(=O)O)c(O)c1 reads > 30 µM

The reported AC50 value, Type-1 angiotensin II receptor (Homo sapiens), for CS(=O)(=O)OCCCCOS(C)(=O)=O reads > 30 µM

The reported AC50 value, Type-1 angiotensin II receptor (Homo sapiens), for COC1=C(OC)C(=O)C(CCCCCCCCCCO)=C(C)C1=O reads > 30 µM

The reported AC50 value, Type-1 angiotensin II receptor (Homo sapiens), for N[C@H](Cc1cc(I)c(Oc2cc(I)c(O)c(I)c2)c(I)c1)C(=O)O reads > 30 µM

The reported AC50 value, Type-1 angiotensin II receptor (Homo sapiens), for CC(C)C[C@H](CN)CC(=O)O reads > 30 µM

The reported AC50 value, Type-1 angiotensin II receptor (Homo sapiens), for CC(C)=CCOc1ccc(/C=C/C(=O)c2ccc(OCC=C(C)C)cc2OCC(=O)O)cc1 reads 7.5 µM

The reported AC50 value, Type-1 angiotensin II receptor (Homo sapiens), for O=C(O)c1cc(O)c2c3nc4ccccc4oc-3cc(=O)c2n1 reads > 30 µM

The reported AC50 value, Type-1 angiotensin II receptor (Homo sapiens), for CCN(CC)CCOC(=O)c1ccc(N)cc1Cl reads > 30 µM

The reported AC50 value, Type-1 angiotensin II receptor (Homo sapiens), for COc1c(O[C@@H]2O[C@H](CO)[C@@H](O)[C@H](O)[C@H]2O)cc2c(c1OC)-c1ccc(SC)c(=O)cc1[C@@H](NC(C)=O)CC2 [THIOCOLCHICOSIDE] reads > 30 µM
